# run description: Selectivity index, ratio of CC50 for cytotoxicity against human 293T/ACE2 cells to IC50 for SARS-CoV-2 spike glycoprotein S inhibition
# Type: toxicity, cell-based
# condition info: read-out: Selectivity Index
Entries and their selectivity ratio
Give the figure by itself; no unit, no explanation.

Req: Which selectivity ratio reading was recorded for the compound C[C@@H]1O[C@@H](O[C@H]2[C@H](O[C@H]3CC[C@]4(C)[C@H]5CC=C6[C@@H]7CC(C)(C)CC[C@]7(C(=O)NCc7cccs7)CC[C@@]6(C)[C@]5(C)CC[C@H]4C3(C)C)O[C@H](CO)[C@@H](O[C@@H]3O[C@@H](C)[C@H](O)[C@@H](O)[C@H]3O)[C@@H]2O)[C@H](O)[C@H](O)[C@H]1O ?
Resp: 5.92

Req: Entry C[C@@H]1O[C@@H](O[C@H]2[C@H](O[C@H]3CC[C@]4(C)[C@H]5CC=C6[C@@H]7CC(C)(C)CC[C@]7(C(=O)Nc7ccccc7Cl)CC[C@@]6(C)[C@]5(C)CC[C@H]4C3(C)C)O[C@H](CO)[C@@H](O[C@@H]3O[C@@H](C)[C@H](O)[C@@H](O)[C@H]3O)[C@@H]2O)[C@H](O)[C@H](O)[C@H]1O : reported selectivity ratio = ?
Resp: 5.06

----------
# run description: Selectivity index, ratio of CC50 for cytotoxicity against human 293T/ACE2 cells to IC50 for SARS-CoV-2 spike glycoprotein S inhibition
# Format: toxicity, cell-based
# condition info: read-out: Selectivity Index
experimental readout: selectivity ratio
No unit in the answer, only the number.

- COc1ccccc1CNC(=O)[C@]12CCC(C)(C)C[C@H]1C1=CC[C@@H]3[C@@]4(C)CC[C@H](O[C@@H]5O[C@H](CO)[C@@H](O[C@@H]6O[C@@H](C)[C@H](O)[C@@H](O)[C@H]6O)[C@H](O)[C@H]5O[C@@H]5O[C@@H](C)[C@H](O)[C@@H](O)[C@H]5O)C(C)(C)[C@@H]4CC[C@@]3(C)[C@]1(C)CC2: 2

// next item, selectivity ratio requested
Req: Quick check: selectivity ratio of COc1ccccc1NC(=O)[C@]12CCC(C)(C)C[C@H]1C1=CC[C@@H]3[C@@]4(C)CC[C@H](O[C@@H]5O[C@H](CO)[C@@H](O[C@@H]6O[C@@H](C)[C@H](O)[C@@H](O)[C@H]6O)[C@H](O)[C@H]5O[C@@H]5O[C@@H](C)[C@H](O)[C@@H](O)[C@H]5O)C(C)(C)[C@@H]4CC[C@@]3(C)[C@]1(C)CC2 ?
Resp: 5.64

----------
# run description: Selectivity index, ratio of CC50 for cytotoxicity against human 293T/ACE2 cells to IC50 for SARS-CoV-2 spike glycoprotein S inhibition
# Format: toxicity, cell-based
# condition info: read-out: Selectivity Index
// reported selectivity ratio for each item listed

• O=C(/C=C/c1ccc(O)c2oc(-c3ccc(O)c(O)c3)cc12)O[C@H](Cc1ccc(O)c(O)c1)C(=O)O = > 26
• C[C@@H]1O[C@@H](O[C@H]2[C@H](O[C@H]3CC[C@]4(C)[C@H]5CC=C6[C@@H]7CC(C)(C)CC[C@]7(C(=O)Nc7ccccc7)CC[C@@]6(C)[C@]5(C)CC[C@H]4C3(C)C)O[C@H](CO)[C@@H](O[C@@H]3O[C@@H](C)[C@H](O)[C@@H](O)[C@H]3O)[C@@H]2O)[C@H](O)[C@H](O)[C@H]1O = 1.85
• C[C@@H]1O[C@@H](O[C@H]2[C@H](O[C@H]3CC[C@]4(C)[C@H]5CC=C6[C@@H]7CC(C)(C)CC[C@]7(C(=O)NCc7ccccc7F)CC[C@@]6(C)[C@]5(C)CC[C@H]4C3(C)C)O[C@H](CO)[C@@H](O[C@@H]3O[C@@H](C)[C@H](O)[C@@H](O)[C@H]3O)[C@@H]2O)[C@H](O)[C@H](O)[C@H]1O = > 17.6

Turning now to a further molecule:
Req: I am curious: what selectivity ratio value has been reported for C[C@@H]1O[C@@H](O[C@H]2[C@H](O[C@H]3CC[C@]4(C)[C@H]5CC=C6[C@@H]7CC(C)(C)CC[C@]7(C(=O)NCc7ccccc7)CC[C@@]6(C)[C@]5(C)CC[C@H]4C3(C)C)O[C@H](CO)[C@@H](O[C@@H]3O[C@@H](C)[C@H](O)[C@@H](O)[C@H]3O)[C@@H]2O)[C@H](O)[C@H](O)[C@H]1O ?
Resp: > 22.9

----------
List of CC50 values.
# run description: Cytotoxicity against human 293T/ACE2 cells measured after 48 hrs by MTT assay
# Type: cell-based
# condition info: 293t/ace2, 48 h
# unit: µM | format: bare number

* C[C@@H]1O[C@@H](O[C@H]2[C@H](O[C@H]3CC[C@]4(C)[C@H]5CC=C6[C@@H]7CC(C)(C)CC[C@]7(C(=O)Nc7ccccc7)CC[C@@]6(C)[C@]5(C)CC[C@H]4C3(C)C)O[C@H](CO)[C@@H](O[C@@H]3O[C@@H](C)[C@H](O)[C@@H](O)[C@H]3O)[C@@H]2O)[C@H](O)[C@H](O)[C@H]1O | 33.5
* C[C@@H]1O[C@@H](O[C@H]2[C@H](O[C@H]3CC[C@]4(C)[C@H]5CC=C6[C@@H]7CC(C)(C)CC[C@]7(C(=O)N(C)Cc7ccccc7)CC[C@@]6(C)[C@]5(C)CC[C@H]4C3(C)C)O[C@H](CO)[C@@H](O[C@@H]3O[C@@H](C)[C@H](O)[C@@H](O)[C@H]3O)[C@@H]2O)[C@H](O)[C@H](O)[C@H]1O | 37.6
* COc1ccccc1NC(=O)[C@]12CCC(C)(C)C[C@H]1C1=CC[C@@H]3[C@@]4(C)CC[C@H](O[C@@H]5O[C@H](CO)[C@@H](O[C@@H]6O[C@@H](C)[C@H](O)[C@@H](O)[C@H]6O)[C@H](O)[C@H]5O[C@@H]5O[C@@H](C)[C@H](O)[C@@H](O)[C@H]5O)C(C)(C)[C@@H]4CC[C@@]3(C)[C@]1(C)CC2 | 31.2
* C[C@@H]1O[C@@H](O[C@H]2[C@H](O[C@H]3CC[C@]4(C)[C@H]5CC=C6[C@@H]7CC(C)(C)CC[C@]7(C(=O)Nc7ccccc7Cl)CC[C@@]6(C)[C@]5(C)CC[C@H]4C3(C)C)O[C@H](CO)[C@@H](O[C@@H]3O[C@@H](C)[C@H](O)[C@@H](O)[C@H]3O)[C@@H]2O)[C@H](O)[C@H](O)[C@H]1O | 31.7
* C[C@@H]1O[C@@H](O[C@H]2[C@H](O[C@H]3CC[C@]4(C)[C@H]5CC=C6[C@@H]7CC(C)(C)CC[C@]7(C(=O)NCc7cccs7)CC[C@@]6(C)[C@]5(C)CC[C@H]4C3(C)C)O[C@H](CO)[C@@H](O[C@@H]3O[C@@H](C)[C@H](O)[C@@H](O)[C@H]3O)[C@@H]2O)[C@H](O)[C@H](O)[C@H]1O | 34.9

The record that follows has no CC50 shown yet.
Req: Return reported CC50; argument: C[C@@H]1O[C@@H](O[C@H]2[C@H](O[C@H]3CC[C@]4(C)[C@H]5CC=C6[C@@H]7CC(C)(C)CC[C@]7(C(=O)OCc7ccccc7)CC[C@@]6(C)[C@]5(C)CC[C@H]4C3(C)C)O[C@H](CO)[C@@H](O[C@@H]3O[C@@H](C)[C@H](O)[C@@H](O)[C@H]3O)[C@@H]2O)[C@H](O)[C@H](O)[C@H]1O
Resp: 21.6

----------
# run description: Cytotoxicity against human 293T/ACE2 cells measured after 48 hrs by MTT assay
# Format: cell-based
# condition info: 293t/ace2, 48 h
experimental readout: CC50

Please review the entries below; each comes with its answer.
* COc1ccccc1CNC(=O)[C@]12CCC(C)(C)C[C@H]1C1=CC[C@@H]3[C@@]4(C)CC[C@H](O[C@@H]5O[C@H](CO)[C@@H](O[C@@H]6O[C@@H](C)[C@H](O)[C@@H](O)[C@H]6O)[C@H](O)[C@H]5O[C@@H]5O[C@@H](C)[C@H](O)[C@@H](O)[C@H]5O)C(C)(C)[C@@H]4CC[C@@]3(C)[C@]1(C)CC2 | 33.4 µM
* COc1cccc(NC(=O)[C@]23CCC(C)(C)C[C@H]2C2=CC[C@@H]4[C@@]5(C)CC[C@H](O[C@@H]6O[C@H](CO)[C@@H](O[C@@H]7O[C@@H](C)[C@H](O)[C@@H](O)[C@H]7O)[C@H](O)[C@H]6O[C@@H]6O[C@@H](C)[C@H](O)[C@@H](O)[C@H]6O)C(C)(C)[C@@H]5CC[C@@]4(C)[C@]2(C)CC3)c1 | > 100 µM

For the next question, use this compound.
Req: So what does the record say about CC50 for C[C@@H]1O[C@@H](O[C@H]2[C@H](O[C@H]3CC[C@]4(C)[C@H]5CC=C6[C@@H]7CC(C)(C)CC[C@]7(C(=O)NCc7ccccc7Cl)CC[C@@]6(C)[C@]5(C)CC[C@H]4C3(C)C)O[C@H](CO)[C@@H](O[C@@H]3O[C@@H](C)[C@H](O)[C@@H](O)[C@H]3O)[C@@H]2O)[C@H](O)[C@H](O)[C@H]1O ?
Resp: > 100 µM
